The measurements presented in this section are drawn from the supplement of paper PMC10126150.

Tested on: ATP;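 also: ATP exposure 15 min at 22 °C before imaging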
assayInfo: switch fluorescence ratio, 500 uM ATP over buffer (Cy3 cluster intensity, sum of 5 cycles each) (fold (ratio)); higher = stronger signal-on switching upon ATP binding; sequences stand for … in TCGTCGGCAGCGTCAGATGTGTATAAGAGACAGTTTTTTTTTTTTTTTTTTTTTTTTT…TC
setupConditions: aptamer strand: ATP DNA aptamer (quencher-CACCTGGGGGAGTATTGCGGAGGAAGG + anchor), 100 nM annealed; ATP concentration: 500 uM
Below: a set of entries, each annotated with reported switch fluorescence ratio.
Kindly provide the number alone.

Consider the worked cases shown below.
Input line: Which measured switch fluorescence ratio belongs to `ATGTGGGGTT` , tested on ATP?;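 also: ATP exposure 15 min at 22 °C before imaging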
Output line: 1.01

Input line: Next up: `GAAAAAGGTC`
Output line: 1.03

Input line: What about this sequence? `CATAGGTACA`
Output line: 1.09

New cases:
Input line: Fill in the recorded switch fluorescence ratio for this sequence, with ATP as test system: `GATCCGAGTT`
Output line: 0.99

Input line: Would you mind doing `TCTGATGTTT` as well?
Output line: 1.01

Input line: Also need `GTTTTAGGGG` , thanks.
Output line: 1.01

Input line: Another: `TGTGAAAGTG`
Output line: 0.982

Input line: Moving on to `TCTGACGTA`
Output line: 1.04

Input line: Same thing, different sequence: `TATTAATCGA`
Output line: 1

Input line: Field entry: `CTGGGGGGTG`
Output line: 1.02

Input line: Continue with `CAGTAATTTT`
Output line: 0.999
